- condition: buffer; pH 7.4; 200.0 µM
readout.kind: solubility kinetic

Reference set, count: 3
Lab note: CN(Cc1ccccc1)C(=O)CN1C(=O)c2ccc([N+](=O)[O-])cc2C1=O gave solubility kinetic of > 53 µg/mL

Lab note: O=C(O)c1ccccc1Nc1ccc(OC(F)F)cc1 gave solubility kinetic of > 41.9 µg/mL

Lab note: O=C(NCc1ccc(Cl)cc1)c1cc2ccccc2oc1=O gave solubility kinetic of < 0.7 µg/mL

New cases:
Lab note: CCCn1nc(C(=O)N2CCN(c3ccccn3)CC2)c2ccccc2c1=O gave solubility kinetic of > 56.6 µg/mL

Lab note: Cc1cc(C(=O)N2CCc3ccccc3C2)no1 gave solubility kinetic of > 36.3 µg/mL

Lab note: O=c1[nH]c(/C=C\c2cccc(C(F)(F)F)c2)nc(O)c1[N+](=O)[O-] gave solubility kinetic of > 49.1 µg/mL

Lab note: Nc1nc2ccccc2n1CCOc1ccc(F)cc1 gave solubility kinetic of > 40.7 µg/mL

Lab note: CCCN1C2CCCC1CC(NC(=S)Nc1cccc(C)c1)C2 (configuration not stated) gave solubility kinetic of > 49.7 µg/mL

Lab note: C=CCOc1ccccc1CNc1ccc2[nH]c(=O)[nH]c2c1 gave solubility kinetic of > 44.3 µg/mL

Lab note: CCOC(=O)c1ccc(NC(=O)c2ccco2)cc1 gave solubility kinetic of > 38.9 µg/mL

Lab note: O=C(c1cccs1)N1CCN=C1SCc1ccc(Cl)cc1 gave solubility kinetic of < 0.4 µg/mL

Lab note: CCNC(=O)COC(=O)c1cc(C)n(-c2ccccc2)c1C gave solubility kinetic of > 45.1 µg/mL

====

Entries and their solubility kinetic values follow.
- condition: buffer; pH 7.4; 200.0 µM

Lab note: Cc1nc(C(=O)NNC(=O)c2cccc(Cl)c2)c(C(F)(F)F)o1 gave solubility kinetic of > 52.2 µg/mL

Lab note: O=C(Nc1cccc(Br)c1)C1CCCC1 gave solubility kinetic of > 40.2 µg/mL

Lab note: O=C(c1c(F)cccc1Cl)N1CCN(c2ccccn2)CC1 gave solubility kinetic of > 48 µg/mL

Next item in the queue.
Lab note: COc1ccc(C(=O)CCC(=O)Nc2cccnc2)cc1 gave solubility kinetic of > 42.6 µg/mL

====

- condition: buffer; pH 7.4; 200.0 µM
readout.kind: solubility kinetic

Reference set, count: 5
Lab note: Cc1nc2oc3ccccc3c(=O)c2cc1C(=O)O gave solubility kinetic of > 38.3 µg/mL

Lab note: O=C(O)CN1C(=O)c2ccc(Oc3ccc([N+](=O)[O-])cc3)cc2C1=O gave solubility kinetic of > 51.3 µg/mL

Lab note: Cc1ccccc1NC(=O)Cc1cccs1 gave solubility kinetic of > 34.7 µg/mL

Lab note: Cn1nc(C(C)(C)C)cc1C(=O)O gave solubility kinetic of > 27.3 µg/mL

Lab note: Cc1cccc(CC(=O)NC2CCN(C)CC2)c1 gave solubility kinetic of > 37 µg/mL

New cases:
Lab note: O=C(CN1C(=O)NC2(CCSC2)C1=O)NCc1ccccc1 (stereo unspecified) gave solubility kinetic of > 47.9 µg/mL

Lab note: CCCCC(=O)Nc1cnc(NC(=O)c2ccco2)cc1C gave solubility kinetic of > 45.2 µg/mL

Lab note: COc1ccc(CC(=O)OCC(=O)Nc2ccc3c(c2)OCO3)cc1 gave solubility kinetic of > 51.5 µg/mL

Lab note: CCOC(=O)C1=C(C)N(CC(C)C)C(=O)/C1=C\c1cccs1 gave solubility kinetic of < 0.7 µg/mL

Lab note: COc1ccc(/C=C/C(=O)O)cc1S(=O)(=O)N1CCCCC1 gave solubility kinetic of > 48.8 µg/mL

Lab note: O=C(CCNS(=O)(=O)c1cccc(C(F)(F)F)c1)NCc1ccco1 gave solubility kinetic of > 56.5 µg/mL
